- system: human C5 (human)
- assay.info: SPR, pH 7.4, 37C
As shown below, each of these binders has a reported pKd value.
Recall that pKd is obtained by taking minus log10 of the concentration measured in molar.

These recorded examples may help you get a feel for the data.
CFA0307 (antibody, V domains shown) VH: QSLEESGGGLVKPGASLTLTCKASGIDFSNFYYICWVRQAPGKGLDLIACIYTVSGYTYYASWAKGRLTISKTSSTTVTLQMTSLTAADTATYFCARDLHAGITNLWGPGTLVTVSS VL: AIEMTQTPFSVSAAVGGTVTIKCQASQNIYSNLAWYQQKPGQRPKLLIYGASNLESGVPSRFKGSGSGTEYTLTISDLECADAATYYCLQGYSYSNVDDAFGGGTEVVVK | 8.09
CFA0672 (antibody, V domains shown) VH: QSVEESGGRLVTPGTPLTLTCTASGFSLSGNAINWVRQAPGKGLEWIGCIYTGSDTTYYATWAKGRFTISKTSTTVDLKIASPTTEDTATYFCARGSGLWGPGTLVTVSS VL: DVVMTQTPASVSAPVGGTVTIKCQASQNIYSLLAWYQQKPGQPPKLLIYHTSDLASGVPSRFRGSGSGTEFTLTISDLECADAATYYCQCTAYGSSDVGGTFGGGTTVVVE | 9.45
CFA0305 (antibody, V domains shown) VH: QSLEESGGDLVKPGASLAVTCTASGFSSSSSYYMCWVRQAPGKGLEWIGCIYTGSGATYYASWAKGRFTISKTSSTTVTLQMTSLTVADTATYFCASDGGYVTPTHAMYLWGPGTLVTVSS VL: DVVMTQTPASVSAAVGGTVTIKCQASQNIGSDLAWYQQKPGQPPRLLIYGASKLASGVSSRFSGSGSGKEFTLTISDLECADAVTYYCQCTFVGSSYGNAFGGGTEVVVK | 7.81
CFA0538 (antibody, V domains shown) VH: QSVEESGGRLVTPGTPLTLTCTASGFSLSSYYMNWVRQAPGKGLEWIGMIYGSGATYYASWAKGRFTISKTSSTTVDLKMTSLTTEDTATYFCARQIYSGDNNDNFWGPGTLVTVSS VL: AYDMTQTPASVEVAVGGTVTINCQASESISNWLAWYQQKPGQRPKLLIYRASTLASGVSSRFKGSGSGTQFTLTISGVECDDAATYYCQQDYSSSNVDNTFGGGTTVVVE | 8.41

For CFA0666 (antibody, V domains shown) VH: QSVEESGGRLVTPGTPLTLTCTVSGFSLSTYAMGWVRQAPGKGLEWIGTIDTGDNSFYANWAKGRFTISKTSTTVDLKITSPTAEDTATYFCARNDGSVYNLFNLWGPGTLVTVSS VL: DVVMTQTPASVSAAVGGTVTIKCQASENIYSALSWYQQKPGLRPRLLIYYASTLASGVPSRFKGSRSGTEFTLTISDLECADAATYYCQQYYDINSVDNTFGGGTKVVVE , what is its reported pKd? 8.77

Which pKd value belongs to CFA0501 (antibody, V domains shown) VH: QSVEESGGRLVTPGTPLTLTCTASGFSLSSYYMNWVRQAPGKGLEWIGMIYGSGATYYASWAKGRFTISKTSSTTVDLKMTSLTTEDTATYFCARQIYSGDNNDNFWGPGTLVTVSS VL: AYDMTQTPASVEVAVGGTVTINCQASESISNWLAWYQQKPGQRPKLLIYRASTLASGVSSRFKGSGSGTQFTLTISGVECDDAATYYCQQDYSSSNVDNTFGGGTKVVVE ? 8.45

For CFA0675 (antibody, V domains shown) VH: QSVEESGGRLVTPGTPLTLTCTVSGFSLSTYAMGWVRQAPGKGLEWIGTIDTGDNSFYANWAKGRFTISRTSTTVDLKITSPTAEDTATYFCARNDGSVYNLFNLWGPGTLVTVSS VL: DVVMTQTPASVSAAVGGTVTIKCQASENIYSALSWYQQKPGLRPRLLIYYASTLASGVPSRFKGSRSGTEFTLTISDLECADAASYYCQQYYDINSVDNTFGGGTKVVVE , what is its reported pKd? 8.97

What does the data say about its pKd? Entry: CFA0330 (antibody, V domains shown) VH: QSLEESGGDLVEPGASLTLTCTASGFSWNSGYDMCWVRQAPGKGLEWIACIYTGSSANTAYANWAKGRFTISKTSSTTVTLQMTGLTAADTATYFCARHDDYFFDLWGPGTLVTVSS VL: DVVMTQTPASVSESVGGTVTINCQASQSIGNNLAWYQQKPGQPPKLLIYDASNLASGVPSRFKGSRSGTEPTLTNTLTISGVQCADVATYYCQSGWYGNSYVAAFGGGTEVVVK 9.91

meta.source: patent US11597760
